This section presents molecules with their documented pIC50 values.
target: full length active recombinant SYK enzyme (Homo sapiens, UniProt P43405); construct: full length active recombinant SYK enzyme (Millipore, Calif.); test: Inhibition of Syk tyrosine phosphorylation activity (LANCE TR-FRET kinase assay); conditions: activity in the Syk assays, class symbols
pIC50: −log10 of the molar value.

For orientation, consider the following solved cases.
In [3]: df
Out[3]:
                              sample_smiles  metric_name   test_result
0  CC[C@@H](Nc1cnc(C(N)=O)c(Nc2ccc(OC)nc2)n1)C(N)=O        pIC50  7.00 to 8.00
1  NC(=O)c1ncc(N[C@@H](C(N)=O)C2CC2)nc1Nc1ccc2ncccc2c1        pIC50  8.00 to 9.00
2  NC(=O)c1ncc(N[C@@H]2CCCC[C@@H]2N)nc1Nc1ccc(C(=O)N2CCC2)cc1        pIC50  8.00 to 9.00
3  Cc1nsc(Nc2nc(N[C@@H]3CCCC[C@@H]3N)cnc2C(N)=O)c1C        pIC50        > 9.00
4  CC[C@@H](Nc1cnc(C(N)=O)c(Nc2cc(-c3ccccc3)ns2)n1)C(N)=O        pIC50  7.00 to 8.00
5  NC(=O)c1ncc(N[C@@H]2CCCC[C@@H]2N)nc1Nc1cnc2c(F)cccc2c1        pIC50  8.00 to 9.00

Q) Request the reported pIC50 associated with CC(C)C[C@@H](Nc1cnc(C(N)=O)c(Nc2ccc3ncccc3c2)n1)C(N)=O
A) 8.00 to 9.00

Q) Try the molecule CC[C@@H](Nc1cnc(C(N)=O)c(Nc2cc(C(C)(C)C)ns2)n1)C(N)=O
A) 7.00 to 8.00

###

target: full length active recombinant SYK enzyme (Homo sapiens, UniProt P43405); construct: full length active recombinant SYK enzyme (Millipore, Calif.); test: Inhibition of Syk tyrosine phosphorylation activity (LANCE TR-FRET kinase assay); conditions: activity in the Syk assays, class symbols
pIC50: −log10 of the molar value.
This section presents compounds with their documented pIC50 values.

                              sample_smiles   test_result
0  NC(=O)c1ncc(N[C@@H]2CCCC[C@@H]2N)nc1Nc1ccc(N2CCCC2)c(C(=O)N2CCCC2)c1  6.00 to 7.00
1  NC(=O)c1ccc(Nc2nc(N[C@@H]3CCCC[C@@H]3N)cnc2C(N)=O)cc1  8.00 to 9.00
2  CC[C@@H](Nc1nc(Nc2cc(C)ns2)c(C(N)=O)nc1Cl)C(N)=O  7.00 to 8.00
3  CC[C@@H](Nc1cnc(C(N)=O)c(Nc2ccnc(N(C)C)c2)n1)C(N)=O  8.00 to 9.00
4  Cc1cc(Nc2nc(N[C@H](CC3CC3)C(N)=O)cnc2C(N)=O)c[n+]([O-])c1  7.00 to 8.00
5  CC[C@@H](Nc1cnc(C(N)=O)c(-n2cnc(-c3ccc(N)cc3)c2)n1)C(N)=O        < 6.00
6  COc1cncc(Nc2nc(N[C@@H]3CCOC[C@@H]3N)cnc2C(N)=O)c1  8.00 to 9.00

Now look at this entry.
Q) Request the reported pIC50 associated with CC[C@@H](Nc1cnc(C(N)=O)c(Nc2ccc(N3CCC3)nc2)n1)C(N)=O
A) 7.00 to 8.00

###

molecular target: full length active recombinant SYK enzyme (Homo sapiens, UniProt P43405); construct: full length active recombinant SYK enzyme (Millipore, Calif.); test: Inhibition of Syk tyrosine phosphorylation activity (LANCE TR-FRET kinase assay); settings: activity in the Syk assays, class symbols
pIC50: −log10 of the molar value.
metric name: pIC50

In [3]: df
Out[3]:
                              sample_smiles  metric_name   test_result
0  Cc1ccc(Nc2nc(N[C@@H](C(N)=O)C(C)C)cnc2C(N)=O)cc1C        pIC50  7.00 to 8.00
1  CC[C@@H](Nc1cnc(C(N)=O)c(Nc2ccc(-c3nnco3)cc2)n1)C(N)=O        pIC50  7.00 to 8.00
2  COc1cc(Nc2nc(N[C@@H]3CCCC(F)(F)[C@@H]3N)cnc2C(N)=O)ccn1        pIC50  7.00 to 8.00

Now look at this entry.
Q) Record CC(C)[C@@H](Nc1cnc(C(N)=O)c(Nc2cnc3cc(F)ccc3c2)n1)C(N)=O : what is its pIC50 with full length active recombinant SYK enzyme (Homo sapiens, UniProt P43405)?
A) 8.00 to 9.00

###

This section presents compounds with their documented pIC50 values.
Biological target: full length active recombinant SYK enzyme (Homo sapiens)
Construct: full length active recombinant SYK enzyme (Millipore, Calif.)
Assay: Inhibition of Syk tyrosine phosphorylation activity (LANCE TR-FRET kinase assay)
Details: activity in the Syk assays, class symbols
Procedure: The in vitro and in vivo human Syk activities of the inventive compounds can be determined by various procedures known in the art, such as a test for their ability to inhibit the activity of human plasma Syk. […] Potency of candidate molecules for inhibiting Syk tyrosine phosphorylation activity is assessed by measuring the ability of a test compound to inhibit Syk-mediated tyrosine phosphorylation of a Syk-specific substrate. […]
pIC50: −log10 of the molar value.

For orientation, consider the following solved cases.
>>> df
                              sample_smiles  metric_name   test_result
0  CC(C)C[C@@H](Nc1cnc(C(N)=O)c(Nc2cccc(-c3ccccn3)c2)n1)C(N)=O        pIC50  7.00 to 8.00
1  CC[C@@H](Nc1cnc(C(N)=O)c(Nc2ccc(N(C)C)nc2)n1)C(N)=O        pIC50  7.00 to 8.00
2  CCc1ccc(Nc2nc(N[C@@H]3CCCC(F)(F)[C@@H]3N)cnc2C(N)=O)cn1        pIC50  6.00 to 7.00
3  C[C@@H](Nc1cnc(C(N)=O)c(Nc2cnc3ccccc3c2)n1)C(N)=O        pIC50  8.00 to 9.00
4  NC(=O)c1ncc(N[C@H](CC2CC2)C(N)=O)nc1Nc1csc2ncccc12        pIC50  8.00 to 9.00
5  CC[C@@H](Nc1cnc(C(N)=O)c(Nc2cnn(CC3CC3)c2)n1)C(N)=O        pIC50  6.00 to 7.00

Q) Request the reported pIC50 associated with NC(=O)c1ncc(N[C@@H]2CCNC2)nc1Nc1cnn2ccccc12
A) 7.00 to 8.00

Q) Try the compound NC(=O)c1ncc(N[C@@H]2CCCC[C@@H]2N)nc1Nc1cnc2ccncc2c1
A) 8.00 to 9.00

Q) Try the compound NC(=O)c1ncc(N[C@@H]2CCCC[C@@H]2N)nc1Nc1cccc(-c2ncco2)c1
A) > 9.00

Q) Try the compound CN1C(=O)Cc2cc(Nc3nc(N[C@@H]4CCCC[C@@H]4N)cnc3C(N)=O)ccc21
A) 8.00 to 9.00

Q) Try the compound CC[C@@H](Nc1cnc(C(N)=O)c(Nc2cncc(F)c2)n1)C(N)=O
A) 7.00 to 8.00

###

target: full length active recombinant SYK enzyme (Homo sapiens, UniProt P43405); construct: full length active recombinant SYK enzyme (Millipore, Calif.); assay: Inhibition of Syk tyrosine phosphorylation activity (LANCE TR-FRET kinase assay); conditions: activity in the Syk assays, class symbols
This section presents compounds with their documented IC50 values.

For orientation, consider the following solved cases.
In [3]: df
Out[3]:
                              sample_smiles  test_result
0  CCc1cc(Nc2nc(N[C@H](CC3CC3)C(N)=O)cnc2C(N)=O)sn1   1 to 10 nM
1  CN(C)c1nc2ccc(Nc3nc(N[C@@H]4CCCC[C@@H]4N)cnc3C(N)=O)cc2o1   1 to 10 nM
2  Cn1ccc2cc(Nc3nc(N[C@@H]4CCCC(F)(F)[C@@H]4N)cnc3C(N)=O)ccc21   1 to 10 nM

Q) Record NC(=O)c1ncc(N[C@H](Cc2ccncc2)C(N)=O)nc1Nc1ccc2ncccc2c1 : what is its IC50 with full length active recombinant SYK enzyme (Homo sapiens, UniProt P43405)?
A) 10 to 100 nM

Q) Try the compound CC(C)C[C@@H](Nc1cnc(C(N)=O)c(Nc2ccc(C(F)(F)F)nc2)n1)C(N)=O
A) 10 to 100 nM

###

target: full length active recombinant SYK enzyme (Homo sapiens); construct: full length active recombinant SYK enzyme (Millipore, Calif.); assay: Inhibition of Syk tyrosine phosphorylation activity (LANCE TR-FRET kinase assay); conditions: activity in the Syk assays, class symbols
pIC50: −log10 of the molar value.
This section presents molecules with their documented pIC50 values.

                                   molecule                          target_or_system   test_result
0  Cc1cc(Nc2nc(N[C@H](CC3CCCCC3)C(N)=O)cnc2C(N)=O)sn1 [Example 390]  full length active recombinant SYK enzyme (Homo sapiens)  7.00 to 8.00
1  COc1cc(Nc2nc(N[C@H]3CCCC[C@@H]3N)cnc2C(N)=O)cc(OC)c1 [Example 93]  full length active recombinant SYK enzyme (Homo sapiens)  8.00 to 9.00
2  CN(C)C(=O)c1ccc(Nc2nc(N[C@@H]3CCCC[C@@H]3N)cnc2C(N)=O)cn1 [Example 278]  full length active recombinant SYK enzyme (Homo sapiens)  6.00 to 7.00

Now look at this entry.
Q) Request the reported pIC50 associated with CC[C@@H](Nc1cnc(C(N)=O)c(Nc2cc(C)nc(C)c2)n1)C(N)=O [Example 179]
A) 7.00 to 8.00
